meta.source: paper PMC10205807

- test: PK study in mice (intravenous and oral)
- Assay type: in vivo
- conditions.used: female, BALB/cAnNCrj-nu/nu, mouse, plasma, oral 10 mg/kg
- Procedure: Female BALB/cAnNCrj-nu/nu mice were purchased from Charles River Laboratories (Kanagawa, Japan) and were acclimatized for 9 days prior to use in the PK study. At the dosing day, 7-week-old mice were used. E7080 was dissolved in 5% glucose injection to make a 0.3 mg/mL solution for intravenous administration and dissolved in water to make 0.3, 1, and 3 mg/mL solutions for oral administrations. […]
metric: AUC(0-inf) (ng·h/mL)
Kindly provide the numeric value in ng·h/mL only, without the unit symbol.

Qu. Value lookup for AUC(0-inf); key = COc1cc2nccc(Oc3ccc(NC(=O)NC4CC4)c(Cl)c3)c2cc1C(N)=O [lenvatinib, Lenvatinib]
Ans. 27700
